The values you see were collected from the supplement of paper PMC10567573.

METHOD: protein stability index of a GFP-peptide fusion (GPS, HEK-293T) (PSI 1-6); higher = more stable;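 also: 24-mer peptide tiles fused after GFP, lentivirally expressed, FACS-sorted into six equal bins by GFP/DsRed ratio, decoded by Illumina sequencing, PSI is the read-weighted mean bin number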
PARTICULARS: treatment: DMSO; c terminus: a fixed tail appended
VALUE_KIND: protein stability index
One number for each entry.

Please review the following examples before continuing.
INSERT INTO measurements (polymer_sequence, value_kind, data_value) VALUES
  ('DLRHLRAVPTDEARAFAEKNGLSF [RAB11A]', 'protein stability index', 3.54),
  ('DKKVRTIIIRSEVPGIFCAGADLK [AUH]', 'protein stability index', 2.12),
  ('DLVERALYSMECAFHPLFSLTSGA [TCF25]', 'protein stability index', 3.09);

// each listed sequence needs a value for protein stability index
1. DIIRKQVLGTKVDAERDGVKVPTT [CDC34]
2. EPGPRPALQPSPSIRLPLDAPLPG [TBC1D10A]
3. KSVQCGTWTKHAEGGIFTSPNYPS [NETO1]
4. PYKCPECGKSFSRSSHLVIHERTH [ZNF263]
5. DRKVLLKSDSPTGDVLLDETLKHI [GOLPH3L]
6. YGGSGDGLIPTGSGRHPSHSTTPS [ARFIP2]

1. 4.2
2. 4.97
3. 2.88
4. 3.23
5. 4.17
6. 4.26

----------
METHOD: protein stability index of a GFP-peptide fusion (GPS, HEK-293T) (PSI 1-6); higher = more stable
PARTICULARS: treatment: DMSO; c terminus: a fixed tail appended
Kindly state protein stability index for each of the entries shown.
One number for each entry.

Example entries begin here.
INSERT INTO results (polymer_sequence, value_kind, data_value) VALUES
  ('TGEASENGLEDIDRILERIEDSTG [TCF25]', 'protein stability index', 5.47),
  ('MVGEEKMSLRNRLSKSRENPEEDE [SOAT1]', 'protein stability index', 5.52),
  ('SVRGYMMSKQRERQLRRRALHPER [RETREG3]', 'protein stability index', 3.43);

Hi, could you look up protein stability index for each item in my list?
1. DSRIRFGFLTVTNLGVENMNHYKK [PTPN9]
2. YAILDEKKSELLQRITQEQEKKLS [TRIM63]
3. SNSCPAELPNIKREISETEAKALL [TFE3]
4. PKEEQQQALEQFAAAAAHSTPVRR [EPB41L3]
5. RQLVEADINGLRRILDELTLCKAD [KRT36]
6. ASVINNMLAEIFCQTGGVEDQEEW [ZBED1]
7. DYWNLQKDYYPINESLASLPLRVS [CLPTM1]

[2.53, 4.35, 5.1, 5.37, 3.2, 3.31, 2.4]

I have 8 sequences here; please give me protein stability index for each one.
1. VEVDAAPAVDLNQVLNETRNQYEA [KRT33B]
2. EPEPAEVTSTSQSPHSPDSSQSSL [DDIT3]
3. EGAFGEHGSQGTYSNTKENGINGE [MAP2]
4. CYVSRRLSQLSSHDPLWRRHCKKY [FBXO3]
5. KNSMENGRPPDPADWAVMDVVNYF [SAMD13]
6. VWNMTATRPKKMGSQLPKPRMLRE [FATE1]
7. LLQDKQFELALQLAEMKDDSDSEK [VPS39]
8. LLETNPYLLALTIIVSIVHSVFEF [CLPTM1]

4.91
5.48
5.19
2.32
3.3
2.94
5.19
3.08

Each of the following entries comes with a recorded value; kindly state protein stability index for each.
1. AKEDGKADTKKRHTPRGHAESTSN [SMOC2]
2. LREENKALREENRMLSKENKILQV [CBY2]
3. VYAGRPLSVIQMVAFLEQRASALL [FBXO34]
4. VAGNPQDTRLRYSFFVPRPTPSTP [ADAMTS4]
5. LTQIDGTLSTIEFQREALENSHTN [CHMP4C]
6. ESFIKAIGVGLGFELQRLEFDLSP [AASDHPPT]
7. KERILLVTDKTLLICKYDFIMLSC [TPRG1]
8. WEFKLSDPDEVARRWGKRKNKPKM [ETS1]

5.53
4.75
1.98
3.11
4.34
2.89
3.06
3.65

----------
METHOD: protein stability index of a GFP-peptide fusion (GPS, HEK-293T) (PSI 1-6); higher = more stable
PARTICULARS: treatment: MLN4924 1 uM, 8 h; c terminus: a fixed tail appended
Mark Yes for reported protein stability index of 3 or greater; mark No for anything smaller.

# count of solved cases: 5
INSERT INTO assay_data (polymer_sequence, answer_label) VALUES
  ('SHRPNMELCRDAAQFRLLSEVEEL [TEKT4]', 'Yes'),
  ('AFSPIVILTERVSLPFKPFAIILP [MIA2]', 'No'),
  ('FSDSSLIEDSQALHKRPKLDSEYY [LURAP1L]', 'Yes'),
  ('GSRLAEFGAAGVNRLSIGLQSLDD [RSAD1]', 'Yes'),
  ('VYAGRPLSVIQMVAFLEQRASALL [FBXO34]', 'No');

Is reported protein stability index greater than or equal to 3 here: TCGVCALELGSTEVLLDHLKAHAE [PLAGL1]
No

Queued: VEIVKSDFHKPFLGGFRHKVTGVE [IQUB]
No

----------
Field: protein stability index. Provide a value for each of the sequences that follow.
METHOD: protein stability index of a GFP-peptide fusion (GPS, HEK-293T) (PSI 1-6); higher = more stable
PARTICULARS: treatment: MLN4924 1 uM, 8 h; c terminus: a fixed tail appended
Give bare numbers.

# example entries with known answers
INSERT INTO measurements (polymer_sequence, value_kind, data_value) VALUES
  ('FHNLVSLNLNYNCISDELLENLCE [FBXO39]', 'protein stability index', 2.66),
  ('PSTVGAEAQEEFLRVLGSMCQRLR [DFFB]', 'protein stability index', 2.2),
  ('SFGPQPISRLEQCGINANDVKKLE [RAD51]', 'protein stability index', 4.37);

For every item below, please supply its protein stability index.
1. WATRKPPAPKSTYECRCIGEEKEM [TIA1]
2. TLYRPEEGYCQAQAPIAAVLLMHM [TBC1D10A]

3.4
2.43

Below is a list of sequences. For each, state its recorded protein stability index.
1. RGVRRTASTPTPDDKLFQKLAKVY [CPN1]
2. GSKNVFSTFRTPAVLFTGIVALYI [ATL3]
3. PRQVSYTPQHHEKQYAMQRPNDDS [IQUB]

1: 2.86; 2: 2.67; 3: 4.77

Items follow; give protein stability index for each.
1. EVHRLIEGKAPIISGVTKAISSPT [TPPP]
2. QASPYHPGSCGAGAPSPGSSDVST [ELF3]
3. RKDVGCNRFEVTLEKSNKNFSKKI [VPS39]
4. ASSSPVTLRQKTVDWRRVSRLQED [SLA]

1: 3.84; 2: 4.52; 3: 3.98; 4: 3.77

I have this sequence here, DQDDRRTWDGRPLTMAATFDDCLY [GFOD1] , and I need its recorded protein stability index.
3.99

----------
Answer each item with its documented protein stability index.
METHOD: protein stability index of a GFP-peptide fusion (GPS, HEK-293T) (PSI 1-6); higher = more stable
PARTICULARS: treatment: MLN4924 1 uM, 8 h; c terminus: a fixed tail appended

For each of the sequences below, state protein stability index.
1. KLEERFMTLAANHELMLRFKDEYK [CCDC89]
2. EDGKTCRRKDVCQAIDHGCEHICV [MATN2]
3. LQRVLQNCPWPMSCPGSSYRTVVR [EMID1]
4. LQKVLLMLVDGIDPNFKMEHQNKR [EHMT1]
5. PSEPSAPLPAGVPPLEDFEVLDGV [FKBP8]

[2.99, 4.24, 2.74, 2.38, 5.53]

For every item below, please supply its protein stability index.
1. DYSPYFKTIEDLRNKIIAATIENA [KRT16]
2. RPCRKFLLTGQCDFGSNCRFSHMS [ZMAT5]

1: 2.44; 2: 4.28

----------
METHOD: protein stability index of a GFP-peptide fusion (GPS, HEK-293T) (PSI 1-6); higher = more stable
PARTICULARS: treatment: DMSO; c terminus: a fixed tail appended
Would you mind labelling by protein stability index? At or over 3 is Yes, under is No.

Examples from the recorded data:
INSERT INTO assay_data (polymer_sequence, answer_label) VALUES
  ('GAGLLSSISELKHALSGHAKVKPF [TPH1]', 'No'),
  ('MGEDEDGLSEKNCQNKCRIALVEN [PLD5]', 'Yes'),
  ('TTSEEAVGGATLAQTTSEAAMEGA [HDAC6]', 'Yes'),
  ('EDKENYKKFYEAFSKNLKLGIHED [HSP90AB1]', 'Yes'),
  ('YSLQMKRVIACQKTAHDSNVLHVA [WDR41]', 'No');

Dear colleague, could you confirm whether PAVATLCDLFDREIVVTISWAKSI [ESRRA] has protein stability index at or above 3?
No

Same thing, different sequence: WDSGCLAPPSTRTSHSLPESSVPS [PLEKHN1]
Yes

Another sequence to look at: DSDFRELHTAREFSEEDEEETTSQ [RTN2]
Yes

What do we get for DEQAPQRQRLLADLLHNVSQNIAA [DFFB] ?
Yes

// query: FHNLVSLNLNYNCISDELLENLCE [FBXO39]
No
